Measured values drawn from patent US20250136586A1 for this set.

Biological target: CDK6/Cyclin D3 (Homo sapiens (Human), UniProt Q00534)
Sequence (Q00534 whole entry): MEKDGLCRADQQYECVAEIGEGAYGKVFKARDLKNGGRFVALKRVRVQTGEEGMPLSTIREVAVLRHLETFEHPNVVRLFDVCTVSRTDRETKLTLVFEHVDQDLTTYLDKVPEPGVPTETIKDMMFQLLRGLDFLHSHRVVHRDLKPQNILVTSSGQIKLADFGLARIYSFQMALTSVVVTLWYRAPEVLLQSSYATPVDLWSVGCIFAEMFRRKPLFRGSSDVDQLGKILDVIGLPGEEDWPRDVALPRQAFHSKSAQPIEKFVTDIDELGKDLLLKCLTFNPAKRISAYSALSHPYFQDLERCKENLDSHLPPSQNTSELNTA
Sequence (P30281 whole entry partner): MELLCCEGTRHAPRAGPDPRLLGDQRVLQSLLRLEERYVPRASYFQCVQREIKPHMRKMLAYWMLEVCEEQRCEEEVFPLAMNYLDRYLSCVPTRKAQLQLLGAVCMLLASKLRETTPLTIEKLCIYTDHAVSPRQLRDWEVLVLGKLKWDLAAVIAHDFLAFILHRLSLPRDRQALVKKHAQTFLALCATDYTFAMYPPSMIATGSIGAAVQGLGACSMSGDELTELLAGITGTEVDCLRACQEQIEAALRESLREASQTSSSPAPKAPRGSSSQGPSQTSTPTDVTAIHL
Test: TR-FRET kinase inhibition assay, CDK6/Cyclin D3
Details: 1 mM ATP, 0.15 μM Rb (Ser780)-biotin substrate, read-out: CDK6D3 IC50
readout-name: IC50 (nM)

Known IC50 results, listed for orientation:
> print(dat)
                                   compound                               system.name  readout.name  unit.info  assay.value
1  COc1cn(C(C)C)c2cc(-c3nc(N[C@@H]4CCOC[C@H]4O)ncc3F)ccc2c1=O  CDK6/Cyclin D3 (Homo sapiens (Human), UniProt Q00534)          IC50         nM         1780
2  CNC(=O)c1c(Cl)c(=O)c2ccc(-c3nc(N[C@@H]4CCOC[C@H]4O)ncc3F)cc2n1C(C)C  CDK6/Cyclin D3 (Homo sapiens (Human), UniProt Q00534)          IC50         nM          445

1 = CC(C)n1c(CN2CC[C@H](F)C2)cc(=O)c2ccc(-c3nc(N[C@@H]4CCOC[C@H]4O)ncc3F)cc21
2 = Cc1cc(=O)c2ccc(-c3nc(N[C@@H]4CCOC[C@H]4O)ncc3F)cc2n1C1CCCC1
Hey, between 1 and 2 which has a smaller measured IC50? Label of pick, please. 1

a = CC(C)n1c(C2CCCN2)cc(=O)c2ccc(-c3nc(N[C@@H]4CCOC[C@H]4O)ncc3F)cc21 (stereo partly drawn)
b = CC(C)n1c(CN2CCO[C@H](C)C2)cc(=O)c2ccc(-c3nc(N[C@@H]4CCOC[C@H]4O)ncc3F)cc21
c = CC(C)n1c(CN2CCC[C@H](O)C2)cc(=O)c2ccc(-c3nc(N[C@@H]4CCOC[C@H]4O)ncc3F)cc21
d = CC(C)n1c(CN2CCCC2)cc(=O)c2ccc(-c3nc(N[C@@H]4CCOC[C@H]4O)ncc3F)cc21
# desc sort on IC50 across 4 compounds In plain terms: list the labels in the order you were asked to. b, d, a, c
(b: 1210 nM, d: 760 nM, a: 450 nM, c: 238 nM)
